System: 786-0 renal
PROTOCOL DETAILS: NCI tumour cell line growth inhibition, 48 h
VALUE TYPE: TGI (µM)
Numeric answer only, unit µM assumed.

Before answering, review these 2 worked examples.
compound=Nc1nc(SCC#CCCl)c2[nH]cnc2n1 assay_target="786-0 renal" value_observed=14.9
compound="Clc1ccc(Cc2nc3cc(Cl)c(Cl)cc3n2CC2CCCN3CCCCC23)cc1 (stereo not given)" assay_target="786-0 renal" value_observed=23.5

Query "COc1ccc([C@@H]2[C@@H](Cl)C(=O)N2c2cc(OC)c(OC)c(OC)c2)cc1C" yields TGI of 21.6

Query "CCOC(=O)c1c(N2CCN(C)CC2)[nH]c(=O)c(C(c2c(Cl)cccc2Cl)c2c(O)c(C(=O)OCC)c(N3CCN(C)CC3)[nH]c2=O)c1O" yields TGI of 87

Query "C=CCSC1=N/C(=C\c2ccc(C)cc2)C(=O)N1CC=C" yields TGI of 58.4

---

Tested on: UO-31 renal
PROTOCOL DETAILS: NCI tumour cell line growth inhibition, 48 h
// reported TGI for each item listed

compound="COc1ccc(N2C(=O)[C@@H]3[C@@H]4CC(C)CC[C@@H]4c4c([nH]c5ccccc45)[C@@H]3C2=O)cc1 (stereo partly specified)" value_observed="> 55.9 µM"
compound=CCOC(=O)Nc1cc2c(c(N)n1)N=C(c1ccc(Cl)cc1Cl)CN2 value_observed="22.7 µM"
compound="CCOC(=O)C1=C(C)N(NC(=O)Nc2ccccc2)C2(N)N(NC(=O)Nc3ccccc3)C(C)=C(C(=O)OCC)C12C#N (stereo unspecified)" value_observed="> 100 µM"
compound="Cc1ccccc1NC(=O)C(=O)C(C(=O)c1ccccc1F)C1OC(=O)c2ccccc21 (stereo unspecified)" value_observed="49.4 µM"

Query "Cc1c2ccncc2c(C)c2c1[nH]c1ccc(O)cc12" yields TGI of 1.09 µg/mL

Query "CNC(=O)c1sc(-n2cnc3cc(OC)c(OC)cc32)cc1OCc1ccccc1C(F)(F)F" yields TGI of > 25 µM

Query COc1cc2c(c(O)c1OC)C(O)C1CCC(=O)N1C2c1ccc2c(c1)OCO2 (stereo unspecified) yields TGI of > 100 µM

Query CSCSCC(CO)NC(=O)/C=C/c1c(C)[nH]c(=O)[nH]c1=O (stereo unspecified) yields TGI of > 100 µM

---

System: HOP-92 NSCLC
PROTOCOL DETAILS: NCI tumour cell line growth inhibition, 48 h
Note to self: values exactly at 20 µM are yes. So TGI at or above 20 µM is yes, below is no.

compound=C#Cc1c(C)c(/C=C/C(C)=C\C(=O)OC)n(C)c1C assay_target="HOP-92 NSCLC" class_name=yes
compound="COc1cc2c(c(O)c1OC)C(O)C1CCC(=O)N1C2c1ccc2c(c1)OCO2 (stereo unspecified)" assay_target="HOP-92 NSCLC" class_name=yes
compound=COc1ccc([C@@H]2[C@@H](Cl)C(=O)N2c2cc(OC)c(OC)c(OC)c2)cc1C assay_target="HOP-92 NSCLC" class_name=yes
compound=COc1cc(C(=O)/C=C/c2c[nH]c3ccccc23)cc(OC)c1OC assay_target="HOP-92 NSCLC" class_name=no
compound=CC/C(CC(=O)CCC(=O)Nc1ccc(C)c(C)c1)=N\NC(=O)c1cc2ccccc2cc1O assay_target="HOP-92 NSCLC" class_name=yes

Then there is this compound:
Prompt: Can CCCOC(=O)CCC(NC(=O)c1ccc(Nc2nc3ccccc3nc2-c2cccs2)cc1)C(=O)OCCC (stereo unspecified) be said to have TGI at or above 20 µM?
Completion: yes

---

Tested on: OVCAR-8 ovarian
PROTOCOL DETAILS: NCI tumour cell line growth inhibition, 48 h
// reported TGI for each item listed
Numeric answer only, unit µM assumed.

molecule="NP1(Oc2ccc(F)cc2)=NP(N)(Oc2ccc(F)cc2)=NP(Oc2ccc(F)cc2)(Oc2ccc(F)cc2)=N1 (stereo not given)" value_observed=14.9

Kindly review the next molecule as well.
Short answer on OVCAR-8 ovarian for "COc1ccc([C@@H]2[C@@H](Cl)C(=O)N2c2cc(OC)c(OC)c(OC)c2)cc1C" , TGI: 77.5

---

// reported TGI for each item listed
Tested on: DLD-1 colon
PROTOCOL DETAILS: NCI tumour cell line growth inhibition, 48 h

Before answering, review these 6 worked examples.
compound=O=C1CCNC/C1=C\c1ccccc1 value_observed="48.3 µM"
compound="COC1=CC(=O)[C@@]2(C)C(C)[C@H](c3ccccc3)[C@H]2C1=O (some centres not stated)" value_observed="> 100 µM"
compound="CN(C(=O)C12C3C4C1C1C2C3C41C#N)C(C)(C)C (configuration not stated)" value_observed="> 100 µM"
compound=CC(=O)[CH-]C(=O)c1ccccc1.CC(=O)[CH-]C(=O)c1ccccc1.Cl.[O-]CCc1ccccn1.[O-]CCc1ccccn1.[Ti+4] value_observed="> 100 µM"
compound=O=C1N[C@@H]([C@H]2CC[C@H](Cl)CN2)C(=O)N[C@H]1[C@H]1CC[C@H](Cl)CN1 value_observed="286 µM"
compound=C#Cc1c(C)c(/C=C/C(C)=C\C(=O)OC)n(C)c1C value_observed="> 100 µM"

Kindly review the next compound as well.
Query "Nc1ncc(CN2CCCC2)c(-c2ccccc2O)n1" yields TGI of > 750 µM

---

System: UACC-62 melanoma
PROTOCOL DETAILS: NCI tumour cell line growth inhibition, 48 h
VALUE TYPE: TGI

Before answering, review these 6 worked examples.
compound="CC1(C)C2CC(=O)C1(C)C(OCc1ccccc1)C2Br (stereo not drawn)" value_observed="> 100 µM"
compound=COc1ccc(Cl)cc1NC(=O)O/N=C(\Cl)C(C)C value_observed="32.1 µM"
compound="O=C(NCC(O)COc1ccccc1)c1ccccc1O (stereo not drawn)" value_observed="> 100 µM"
compound=O=[N+]([O-])C(/C=C(\Cl)[N+](=O)[O-])=C(N1CCOCC1)N1CCOCC1 value_observed="> 100 µM"
compound=CC(=O)[CH-]C(=O)c1ccccc1.CC(=O)[CH-]C(=O)c1ccccc1.Cl.[O-]CCc1ccccn1.[O-]CCc1ccccn1.[Ti+4] value_observed="> 100 µM"
compound=O=C(OC[C@H]1C[C@H]2C(=O)OCCC[C@H]2O1)c1ccccc1 value_observed="> 100 µM"

Query "COc1ccc2nc(-c3ccc(N)cc3)sc2c1" yields TGI of > 100 µM

---

// reported TGI for each item listed
System: CAKI-1 renal
PROTOCOL DETAILS: NCI tumour cell line growth inhibition, 48 h

Before answering, review these 8 worked examples.
molecule=O=C(NOCCO)c1ccc2cncn2c1Nc1ccc(I)cc1F value_observed="> 100 µM"
molecule="CCC(CCCC[C@H]1CC[C@@H]2CC(=O)C[C@H]12)OC (stereo not given in full)" value_observed="> 100 µM"
molecule="CC1CCc2c(C(=O)Nc3ncc(Cc4cccc([N+](=O)[O-])c4)s3)csc2C1 (stereo not given)" value_observed="> 100 µM"
molecule=O=[N+]([O-])c1ccc(CSC2=C(c3ccc(Cl)cc3)S/C(=C3\SC(SCc4ccc([N+](=O)[O-])cc4)=C(c4ccc(Cl)cc4)S3)S2)cc1 value_observed="> 100 µM"
molecule=O=C1C=C2SC3C[C@@]24CC1(O)[N+]1=c2c4c(c(O)c4c2=C(C=N4)CC1)N3 value_observed="4 µM"
molecule=COc1cc(/C=N\Nc2ccccc2)ccc1OC(=O)c1ccccc1 value_observed="33.7 µM"
molecule=CCOC(=O)Nc1cc2c(c(N)n1)N=C(c1ccc(Cl)cc1Cl)CN2 value_observed="33.7 µM"
molecule=COC(=O)c1sc(-n2cnc3cc(OC)c(OC)cc32)cc1OCc1ccccc1C(F)(F)F value_observed="> 25 µM"

Query O=C1c2c(c3c4ccccc4n(CC4CO4)c3c3[nH]c4ccccc4c23)C(=O)N1Cc1ccccc1 (stereo not given) yields TGI of > 100 µM

Query "COc1ccc2c(Cl)cc(NC(=S)Nc3ccccc3)nc2c1" yields TGI of > 100 µM

Query "CCN(CC)C(=O)N[C@@H](CC(C)C)C(=O)NC" yields TGI of > 100 µM

Query "CC/C(CC(=O)CCC(=O)Nc1ccc(C)c(C)c1)=N\NC(=O)c1cc2ccccc2cc1O" yields TGI of > 100 µM

---

Tested on: HL-60(TB) leukemia
PROTOCOL DETAILS: NCI tumour cell line growth inhibition, 48 h
VALUE TYPE: TGI (µM)
Numeric answer only, unit µM assumed.

Before answering, review these 2 worked examples.
compound=CN(CCNC(=O)c1nn(C)c2c1Cc1ccccc1-2)CCNC(=O)c1nn(C)c2c1Cc1ccccc1-2 value_observed=29
compound="COc1cc(/C=N/NC(=O)c2cnn3c2NC(c2ccccc2)C3)ccc1OCc1ccccc1 (configuration not stated)" value_observed=7.54

Query "C=CC[PH+](c1ccccc1)c1ccccc1.C=CC[PH+](c1ccccc1)c1ccccc1.[Pt+2].[S-]c1nc2ccccc2[nH]1.[S-]c1nc2ccccc2[nH]1" yields TGI of 7.32

Query "Cc1[nH]c2c(C)c3c([nH]c4ccc(Cl)cc43)c(C)c2c(=O)c1C" yields TGI of 9.64

Query "O=C1c2cccc3cc([N+](=O)[O-])cc(c23)C(=O)N1c1ccc(OCCN2CCCC2)cc1" yields TGI of 29

Every entry's value here was drawn from PubChem BioAssay (NCI).
